Some sequences, each annotated with its measured soluble fraction (log2).
test: soluble fraction after stress (log2 fold change); higher = more stays soluble; pooled small domains, quantitative proteomics; details: stress: pH 4
observable: soluble fraction (log2)

In [3]: df
Out[3]:
                                    residues  recorded_number
 0  HMVQARDQNIEEGRQLVLRELDRLDLVNESLTDVAADMNMKSVEDMYAAIGAGDLRVGQVVHAVLKRAD           -0.218
 1  HMQWQPSEEAMQRLEQHGIPRAFSFSQLDAFVLQGQEQGSNRNDWNTRFFRFIKNQWVYAQN            -1.17
 2  HMEKIIFEISEEGKRLDLYIAERTELTRTRIQQLIKDGNINVNNKKSKPSYKVEKNDFIEMIIPDE            -0.49
 3  HMTSLTSDEEQIINVLRAEESVYINALATKSKIPLQKLLGLLIQLEFKGLIHSLPGSHYKIV           -0.473
 4  HMVQVRQPAGAGDLFAKGRLHLSTGTIHTVKPLEVDLPKGRLTVVTGVSGSGKTTLILESLLPALAAAAA            0.307
 5  HMTGQEGLIGAHGVALTRLSNEEGEVKVQGEIWQARSDQEVAKGASIEVVHVDGLVLTVRPQH            0.175
 6  HMKEEVSVPDIKGMTYEEAEAKLAKYDLEIEKGETVKASEQYEEGQISSQEPEAGSKVKEGSTIVVDVVE           -0.174
 7  HMNIIHNPSKNFIESDLNDLKEGMEIEHKKFGYGLIKSIDKTQNHQKAVVNFKLVGEKTLLLSFARLRIV           -0.519
 8  HMSGITDIITDGKATSRPVVVTDGGHIRVLSPYTSFAIYTLGGMSLPTESRLEPGIYIVVVDSNAVKVAV           -0.408
 9  HMPFREGDEVFVELVEPHMYNEDDAVAKLDGYVVAVRGAAGLVGQKVLVRIERVGRSSAEATLVA           -0.451
10  HMVVMEIGANGSEVVKLQKRLNQLGYYTEHASGVYDVKTASAVNEFQRQNELNATGKADYTTLDMIYNQ           -0.204
11  HMLNVNDVIARNVRAARERKKLTLDGAAELTGVSRSMLAQIEKGEVNPTISVVWKIANGFKVSFTSLVEPQ          -0.0104
12  HMSENEIDELRRRFAREAMALMERKGEEVSRTRLAAELSVARARIDAVFPEESDLLEAVTAEWFA           -0.799
13  HMVGEPEPIRYSRFLDEMKSGKLDSVVIQGDTILGVRKDKSQFKTVNPETDYSALIGALDKAGVGIEGRA            0.149
14  HMTDFSDLSFKYNSEEKDVLNSINLKINGGEMTSLVGHSGAGKTTILNLIPRFYEKSKGDISIDGQSIY           -0.172
15  HMGKPTPASQVATRWLTGNLPESLPVAGPAPSFEALARTVSTDLHPRSVLQELVRLGVAEEANGVVTLRRQ          -0.0399
16  HMSYYKEMIRLADSIADKAHEGQTDRNGWPYISHPRRVALGARKLVSEMASSTSPDTSLEELKAEVQIVAL          0.00833
17  HMAFDDAHYKDMITSYLKKFKKGNRSEIENLIIPKLSEVLVEKQKKDKVKNLLQALRKDNQIRLKGKYWYL            0.196
18  HMEPESTMIEISETLTNERLDRYLATKLPNVSRGGIQRLLREGNILVNGKKAKPTQHPVAGQKIEITWPNP            -0.11
19  HMSLEEQNGAKDRQVEAYELLLKAQRALDQEDTAGFQAAMKDLEPLSSQLDAQGQTLYHELLPFVS           -0.246
20  HMTDSSEILEAALKEAEDAAHEVLNGTFSVQLEPQKAYIRRLQHMLIDRMNLSSTSKGKEPYRSLLVYR           -0.601
21  HMTETELYDEVNRLIGLHLSERDRMILIMRDRDEFEIDAIAARTGLSEGNIRLILSRARRTVREAYRNNI             -1.6
22  HMVSSYTMAIQINGKLRATHDFSVDTSQEDIKKIIINLPAIQKYINGVEIKKFIIVPQKIVNIV          -0.0406
23  HMNQEFRMPNAIKGVELSEENKQQLTQGEKVFLEGMTSAKGSLFDAYVYIDQEKKTLAFDFPEK           -0.792
24  HMNKNLQLMINEIKKGLASEDIETRKKSVLMLSRIDAPEIIQVLEPLKDDSSEEIRKISSKIISVLSKKYT            0.332
25  HMEEQKYEYHLGDVVYLGVDKYEILGITNNIVTLYDPEFPLLNKQLDFDEFEKRVKDNYANEHLKVT           -0.545
26  HMDTFNVIARQEIDGILYEYKIMTVEDYKNQSPENLAVIYENIKAVMEQYDLSEDDADAILVDLLG            -1.51
27  HMDRWTPLVVAVLSRGSHRFGELRAAIGGITPKVLTDTLRSMERDGLITRDQAPGVPPRVDYALTPLGS           -0.126
28  HMQVLSESDVEDIKAISGGDKAYDNLMEWAGSKLSKQDAKDYDDVLATGNKTAITFAVKALMAQYENAN            -1.05

* * *

Some sequences, each annotated with its measured soluble fraction (log2).
test: soluble fraction after stress (log2 fold change); higher = more stays soluble; pooled small domains, quantitative proteomics; settings: stress: pH 4
observable: soluble fraction (log2)

                                   residues  recorded_number
0  HMGKINEIVANNIAILRKKNRLSLEELGKLSGVSKSMLALIEKGDGNPTLGILWKIANGLGVPFDELTRRP           0.0455
1  HMTKRKNTEFRQQQIIEAAAKLIFKYGSEHLTVKRIAAQVGISEAAIYRHFTSKKSILSFLLSHIEE           -0.317
2  HMQRFIHITVSDVHQATRLLEEEMQLTNYSVAENNAIKIFEFTYEPQEINHLFGKNGIEVSSLFIGS           -0.345
3  HMGQSKNERMLELVELLNKASRSYYQDAQEIMSNYEYDRLYDELQNLEKELGITLSNSPTVN             -1.3
4  HMGAVDIATARQLISEIGLPIMLKAEGGGGGRGIFAIHNEAELEDAFFKASTMAQASFGNPRLFVEKF           -0.985
5  HMAIDINKIYSEIKKKIPNQDNHIKEILSIIWRDFNNYQNIKSRSILINGEKSSPKKEIFNIIEDNINIPV          0.00852

* * *

Some sequences, each annotated with its measured soluble fraction (log2).
assay: soluble fraction after stress (log2 fold change); higher = more stays soluble; pooled small domains, quantitative proteomics; details: stress: pH 4
observable: soluble fraction (log2)

In [3]: df
Out[3]:
                                   residues  recorded_number
0  HMDREQLELYVGEVRVLQVGELRRIAIGNGKVLQASALDRGQLLLIPEAPGQSVLYLWTRDGTERHLSISV            -0.81
1  HMDVPNLVGKTLEEAENELKKLNIRYNVTERADEAPKDTVIEQSPKPYEAMEPGTVVNLVISSGPA           -0.912
2  HMSDNLTIVRAVYSGLSQRQAAATYHVSRNTVSLLLRHARNRGWLTLEDLAQLDNAAFSKSL            0.354
3  HMEREKTYLMPDLIGRKAERVVPRLQASGFKVEDIRHVYYPGLEKGVIVRQSPPGGYPIQKRNLINLEVS           0.0984
4  HMSDTGQELHDALNMARRTLTILEEQAAGYTALTIPARLVLELEEKRKDVVRLETQIRSAATGTPG          0.00666
5  HMLPNLWVMGPGDHLWRVAEVAMTKHLGRPVANHEIDGYWRRLVALNRESLIDPDNPDLVFAGQVIELPPF             -2.2
6  HMSKMVEMSQEKSREKVARVKIEIQKMLDRKERVTVSGLERATGFSNSFFYRNEEVNQAVKEAQLKQ           0.0693
7  HMKLPNSFGSIQKLSGNRRKPYRVVKTIGWDENGKQIRKTLGYYETRAKALQELALFNEKPYD             0.22

* * *

experiment: soluble fraction after stress (log2 fold change); higher = more stays soluble; pooled small domains, quantitative proteomics; details: stress: pH 4
# cutoff 0.07 applies to soluble fraction (log2); >= gives y, < gives n

                                   residues  class
0  HMRITEQRRTLAKLFADTPGYLSPKDVYDYMGRFYPGLSFDTVYRNLRLLDELGVLEQVVFEDGVKFK      n
1  HMAPLVTLEADGNGAVKLSNLAGHSIREVAGALGGAGLSLIPVGSGTSWKQNPAPGTVLHSGDTVTVYF      y
2  HMFASSADGVEGLKTNPIFASTKEKSDAGKLLYTRYLAIGIFRMLELAKATDPKALEALVEAGG      y
3  HMLINPLDILRNFNLSLYDDSRDSASNKEIDEIFESIKTNNSHIFSTLKAYRIPLPIASLIIKKIIKITLE      n
4  HMTKRTVKSVARKIADFNRERHRMPTYEEMLTLLAVRSKSVVHFWMNKLLQEGILEKDESGHLTFV      y
5  HMDRADIDAVDAEWVRATMERLGLRAKHIESHTGISKSTLSILLNGHRPLTRWHKIAFYYLFKHIEF      n
6  HMQQFGANVRLIRKARQMSIKQLSELSGVSQTMISEVERGLKIPTIDVAGKIAAALGIDLTNLMG      y
